Target: PNCK Nano-luciferase fusion (Homo sapiens, UniProt Q6P2M8)
Construct: host or cells: HEK293
Sequence (Q6P2M8 whole entry, the tested form may be a part): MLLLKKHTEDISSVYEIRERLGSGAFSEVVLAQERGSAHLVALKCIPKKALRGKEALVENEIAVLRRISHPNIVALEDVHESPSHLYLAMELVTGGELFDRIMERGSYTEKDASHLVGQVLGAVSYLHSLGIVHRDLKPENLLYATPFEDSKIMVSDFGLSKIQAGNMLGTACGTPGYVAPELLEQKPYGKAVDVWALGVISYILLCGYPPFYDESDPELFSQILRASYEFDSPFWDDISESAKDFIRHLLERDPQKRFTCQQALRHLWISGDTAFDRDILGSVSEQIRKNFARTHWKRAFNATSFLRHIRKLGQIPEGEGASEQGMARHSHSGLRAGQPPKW
Assay: NanoBRET Target Engagement Intracellular Kinase Assay, cell-based PNCK binding screen and dose response in HEK293 cells
Conditions: compound 1uM; HEK293; K10 tracer 1uM; normalized to staurosporine and DMSO; read-out: Avg. Normalized % Inhibition, 1uM, Nanobret
# cutoff 6% applies to inhibition at 1 µM; >= gives Condition met, < gives Condition not met

compound=COC(=O)c1cnc(Sc2nnc(-c3cccc4ccccc34)o2)cn1 cat="Condition met"
compound=C[C@@H]1CCc2c(sc(NC(=O)c3ccc(Cl)s3)c2C(N)=O)C1 cat="Condition met"
compound=O=C(O)c1cccnc1SCCCN1C(=O)c2cccc3cccc(c23)C1=O cat="Condition not met"
compound=O=C(O)c1cccc(S(=O)(=O)Nc2nc3ccc(Cl)cc3s2)c1 cat="Condition not met"
compound=Cc1nc2c(sc3nc(N4CCOCC4)c4c(c32)CC(C)(C)OC4)c(=O)o1 cat="Condition met"
compound="CC1CCc2c(sc(NC(=O)c3cccs3)c2C(N)=O)C1 (centres unmarked)" cat="Condition not met"
compound=O=c1[nH]c(CSc2ccc3ccccc3n2)nc2ccccc12 cat="Condition met"
compound=Cn1c(=O)n(C(N)=O)c(=O)c2c1nc1n2CCCN1c1ccc(F)cc1 cat="Condition met"
compound=Cc1noc2ncnc(N3CCC(n4c(C)nc5ccccc54)CC3)c12 cat="Condition not met"
compound=COc1ccc(CNC(=O)c2cc(C3CC3)[nH]n2)cc1C(=O)O cat="Condition not met"
compound=COc1cccc(-c2nc3c(c(=O)[nH]2)Cc2cc(Br)ccc2O3)c1O cat="Condition met"
compound=O=c1[nH]c(CSc2ccc3ccccc3n2)nc2ccc(Cl)cc12 cat="Condition met"
compound=O=C(O)c1n[nH]c2c1CN(C(=O)c1ccc(N3CCOCC3)cc1)CC2 cat="Condition not met"
compound=COc1ccc2[nH]c(SCc3cc(=O)n4c(C)cccc4n3)nc2c1 cat="Condition not met"
compound=N#Cc1cnc(Sc2nnc(-c3cccc4ccccc34)o2)cn1 cat="Condition met"
compound=Cc1nc2c3ccccc3nc(SCCCn3c(=O)[nH]c4ccccc43)n2n1 cat="Condition met"
compound=COc1cc(OC)c(Nc2ncnc3sc(C(=O)O)c(C)c23)cc1Cl cat="Condition not met"
compound=COc1cccc([C@@H](C)NC(=O)c2ccc(N3CC(=O)NC3=O)cc2)c1 cat="Condition not met"

###

Each item that follows carries a reported inhibition at 1 µM.
Biological target: PNCK Nano-luciferase fusion (Homo sapiens, UniProt Q6P2M8)
Construct: host or cells: HEK293
Assay: NanoBRET Target Engagement Intracellular Kinase Assay, cell-based PNCK binding screen and dose response in HEK293 cells
Conditions: compound 1uM; HEK293; K10 tracer 1uM; normalized to staurosporine and DMSO; read-out: Avg. Normalized % Inhibition, 1uM, Nanobret
Experimental Endpoint: inhibition at 1 µM (%)

compound=O=C(O)Cc1cc(C2CCN(C(=O)Cc3n[nH]c4ccccc34)CC2)[nH]n1 experimental_endpoint="inhibition at 1 µM" value_reported=2.17
compound="CC1CCc2c(sc(NC(=O)CSc3ncc(-c4ccc(F)cc4)[nH]3)c2C(N)=O)C1 (centres unmarked)" experimental_endpoint="inhibition at 1 µM" value_reported=49.9
compound=COc1ccc(C(=O)/C=C/c2n[nH]c3cc(C(=O)O)ccc23)c(F)c1 experimental_endpoint="inhibition at 1 µM" value_reported=0
compound=O=c1nc(CSc2nnc(-c3ccccc3)c3ccccc23)[nH][nH]1 experimental_endpoint="inhibition at 1 µM" value_reported=0
compound=O=c1[nH]c(CSc2ccccc2)nc2ccc(Cl)cc12 experimental_endpoint="inhibition at 1 µM" value_reported=5.1

These measurements were taken from paper PMC10249896.
